B1: MLL5 (parent)
chain: EQIAERKRKMVSWEASSLGLVTAA

Variants of: B1
ASSAY NAME: protein stability index of a GFP-peptide fusion (GPS, HEK-293T) (PSI 1-6); higher = more stable;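 also: lentivirally expressed fusions sorted by FACS into six bins by GFP to DsRed ratio, PSI derived from sequencing read proportions per bin multiplied by bin number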
MEASUREMENT PARAMETERS: c terminus: a fixed tail appended
# protein stability index per entry
VALUE TYPE: protein stability index

SEQUENCE INPUT | ENDPOINT VALUE
EQIAERKRKMVSVEASSLGLVTAA [W13V] | 4
EQIAERKRKMVSWEARSLGLVTAA [S16R] | 3.57
EQIAERCRKMVSWEASSLGLVTAA [K7C] | 2.19
EQIAERKRKMVSWEAQSLGLVTAA [S16Q] | 3.05
EQIAERKRKMVSWEASSLGPVTAA [L20P] | 3.72
EQIAERKRKMVSWEASTLGLVTAA [S17T] | 2.98
EQIAERKRKMVSEEASSLGLVTAA [W13E] | 4.77
EQIAERKRKMVSWEASSLGLVTRA [A23R] | 2.63
EQIAERKRKMVSWEASSLGLCTAA [V21C] | 3.05
EQIAERKRKMVSTEASSLGLVTAA [W13T] | 3.77
EQIAERKRKMVSMEASSLGLVTAA [W13M] | 3.07
EQIAERKRKMLSWEASSLGLVTAA [V11L] | 2.63
EQIAERKRKMVSWEASSLGLLTAA [V21L] | 2.76
EQIAERKRKMVSWEASSLCLVTAA [G19C] | 2.38
EQIAERKRKMVSWEASSLGLVTQA [A23Q] | 2.31
EQIAERKRKMVSWEASSLGVVTAA [L20V] | 3.37
PQIAERKRKMVSWEASSLGLVTAA [E1P] | 3.16
EQIAERKRKMVSWEASVLGLVTAA [S17V] | 2.31
EQIAERKRKMVSLEASSLGLVTAA [W13L] | 3.86
EQIQERKRKMVSWEASSLGLVTAA [A4Q] | 2.34
EQIASRKRKMVSWEASSLGLVTAA [E5S] | 2.13
EQIAERKRKMVSKEASSLGLVTAA [W13K] | 3.85
